Target: Platelet-derived growth factor receptor alpha (Homo sapiens) (UniProt P16234)
Sequence (P16234 whole entry): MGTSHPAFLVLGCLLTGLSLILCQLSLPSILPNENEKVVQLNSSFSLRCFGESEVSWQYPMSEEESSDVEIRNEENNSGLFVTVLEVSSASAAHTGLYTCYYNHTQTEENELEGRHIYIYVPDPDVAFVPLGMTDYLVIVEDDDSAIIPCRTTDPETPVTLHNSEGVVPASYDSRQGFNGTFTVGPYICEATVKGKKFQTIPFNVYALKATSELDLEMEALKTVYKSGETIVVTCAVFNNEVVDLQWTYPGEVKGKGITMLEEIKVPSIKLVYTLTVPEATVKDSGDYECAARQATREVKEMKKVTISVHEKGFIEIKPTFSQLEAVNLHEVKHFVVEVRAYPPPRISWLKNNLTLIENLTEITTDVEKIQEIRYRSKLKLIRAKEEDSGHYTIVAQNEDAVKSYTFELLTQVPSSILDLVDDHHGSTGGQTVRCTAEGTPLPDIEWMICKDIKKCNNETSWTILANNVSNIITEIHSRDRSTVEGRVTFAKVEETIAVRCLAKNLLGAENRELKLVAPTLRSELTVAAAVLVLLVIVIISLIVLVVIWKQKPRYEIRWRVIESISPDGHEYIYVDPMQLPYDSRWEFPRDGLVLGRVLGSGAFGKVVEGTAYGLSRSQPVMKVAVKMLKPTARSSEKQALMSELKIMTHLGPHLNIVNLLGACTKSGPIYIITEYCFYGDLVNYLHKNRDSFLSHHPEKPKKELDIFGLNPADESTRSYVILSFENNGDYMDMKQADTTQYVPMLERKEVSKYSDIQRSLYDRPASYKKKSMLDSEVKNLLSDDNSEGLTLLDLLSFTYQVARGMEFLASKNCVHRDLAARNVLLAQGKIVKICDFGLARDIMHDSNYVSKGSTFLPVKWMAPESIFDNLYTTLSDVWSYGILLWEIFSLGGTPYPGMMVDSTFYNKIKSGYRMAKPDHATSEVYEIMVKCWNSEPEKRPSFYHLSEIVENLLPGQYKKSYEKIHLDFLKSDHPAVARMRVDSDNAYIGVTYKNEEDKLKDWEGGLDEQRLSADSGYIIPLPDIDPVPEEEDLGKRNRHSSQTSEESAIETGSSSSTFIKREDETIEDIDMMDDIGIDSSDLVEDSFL
Conditions: at 0.1 µM
Description: GSK_PKIS: PDGFRA mean inhibition at 0.1 uM [Nanosyn]
Mark Y for reported inhibition of 10% or greater; mark N for anything smaller.

[[record]]
smiles_repr = "Cc1ccc2c(c1)/C(=N/Nc1ccc(S(N)(=O)=O)cc1)C(=O)N2"
cat = "Y"

[[record]]
smiles_repr = "COC(=O)Nc1nc2cc(Oc3ccc(NC(=O)Nc4cccc(Br)c4)cc3)ccc2[nH]1"
cat = "Y"

[[record]]
smiles_repr = "[O-][S+]1CCN(Cc2ccc(-c3ccc4ncnc(Nc5ccc(OCc6ccccc6)c(Cl)c5)c4c3)o2)CC1"
cat = "N"

[[record]]
smiles_repr = "Cc1cc(O)cc(C)c1/C=C/c1cncc(C(=O)N(C)C)c1"
cat = "Y"

[[record]]
smiles_repr = "COc1cc2ncnc(Nc3ccc(C)c(O)c3)c2cc1OC"
cat = "Y"

[[record]]
smiles_repr = "CCOc1nccc2c1nc(-c1nonc1N)n2CC"
cat = "Y"

[[record]]
smiles_repr = "Cc1cc(Cl)cc2c1NC(=O)C2=NNc1ccc(S(N)(=O)=O)cc1"
cat = "N"

[[record]]
smiles_repr = "Cc1ccc(C(=O)NC2CC2)cc1-c1ccc2[nH]ncc2c1"
cat = "N"

[[record]]
smiles_repr = "O=C(Nc1ccc(Oc2ccc3[nH]c(NC(=O)c4ccco4)nc3c2)cc1)Nc1cc(C(F)(F)F)ccc1F"
cat = "Y"

[[record]]
smiles_repr = "NS(=O)(=O)c1ccc(NC=C2C(=O)Nc3ccc4ncsc4c32)cc1"
cat = "Y"

[[record]]
smiles_repr = "ON=C1CCc2cc(-c3nc(C4CCNCC4)[nH]c3-c3ccncc3)ccc21"
cat = "N"

[[record]]
smiles_repr = "NC(=O)c1sc(-n2cnc3ccccc32)cc1OCc1ccccc1Br"
cat = "N"

[[record]]
smiles_repr = "OCc1ccc(-c2nc(-c3ccccn3)c(-c3ccc4c(c3)OCO4)[nH]2)cc1"
cat = "N"

[[record]]
smiles_repr = "Cc1ccc(NC(=O)CC2CC2)cc1-c1ccc(C(=O)NCC2CC2)cc1"
cat = "N"

[[record]]
smiles_repr = "O=S(=O)(CCOCc1ccc(-c2ccc3ncnc(Nc4ccc(OCc5cccc(F)c5)c(Cl)c4)c3c2)o1)c1ccccc1"
cat = "N"

[[record]]
smiles_repr = "COc1cccc(-n2ncc3c(N/N=C/c4ccc(S(C)(=O)=O)cc4)ncnc32)c1"
cat = "Y"

[[record]]
smiles_repr = "NS(=O)(=O)c1cccc(-c2cc3ccncc3cc2OCc2ccccc2)c1"
cat = "Y"

[[record]]
smiles_repr = "COc1cc(/C=N/Nc2ncnc3c2cnn3C(C)C)ccc1O"
cat = "Y"

[[record]]
smiles_repr = "COc1ccc2ncnc(Nc3ccc(OCc4ccccc4)cc3)c2c1"
cat = "N"

[[record]]
smiles_repr = "CN(c1ccc(NC(=O)Nc2ccc(OC(F)(F)F)cc2)cc1)c1ccnc(Nc2cccc(S(N)(=O)=O)c2)n1"
cat = "Y"

[[record]]
smiles_repr = "CC(C)c1ccc(Nc2nccc(-c3cnn4ncccc34)n2)cc1"
cat = "Y"


###

Target: Serine/threonine-protein kinase pim-3 (Homo sapiens)
Conditions: at 1 µM
Description: GSK_PKIS: PIM3 mean inhibition at 1 uM [Nanosyn]
Listed below: inhibition values for each entry.
parameter_measured: inhibition (%)

[[record]]
smiles_repr = "NS(=O)(=O)c1ccc(Nc2cc(-c3cccc(O)c3)n[nH]2)cc1"
target_or_system = "Serine/threonine-protein kinase pim-3 (Homo sapiens)"
uom = "%"
observed = -0.87

[[record]]
smiles_repr = "COc1cc2ncn(-c3cc(OCc4ccccc4S(C)(=O)=O)c(C#N)s3)c2cc1OC"
target_or_system = "Serine/threonine-protein kinase pim-3 (Homo sapiens)"
uom = "%"
observed = -0.82

[[record]]
smiles_repr = "COc1cc2ncnc(Nc3ccc(C)c(O)c3)c2cc1OC"
target_or_system = "Serine/threonine-protein kinase pim-3 (Homo sapiens)"
uom = "%"
observed = 4.22

[[record]]
smiles_repr = "Cc1cc(-c2ccccn2)cc(C)c1/C=C/c1cncc(-c2nn[nH]n2)c1"
target_or_system = "Serine/threonine-protein kinase pim-3 (Homo sapiens)"
uom = "%"
observed = 3.53

[[record]]
smiles_repr = "COc1cccc(-n2nc(C)c3c(N/N=C(\\C)c4ccncc4)ncnc32)c1"
target_or_system = "Serine/threonine-protein kinase pim-3 (Homo sapiens)"
uom = "%"
observed = -1.03

[[record]]
smiles_repr = "OCc1ccc(-c2nc(-c3ccccn3)c(-c3ccc4c(c3)OCO4)[nH]2)cc1"
target_or_system = "Serine/threonine-protein kinase pim-3 (Homo sapiens)"
uom = "%"
observed = -3.44

[[record]]
smiles_repr = "NC(=O)c1sc(-n2cnc3ccccc32)cc1OCc1ccccc1Br"
target_or_system = "Serine/threonine-protein kinase pim-3 (Homo sapiens)"
uom = "%"
observed = 3.81

[[record]]
smiles_repr = "NS(=O)(=O)c1cccc(Nc2cc(-c3ccc(F)cc3)n[nH]2)c1"
target_or_system = "Serine/threonine-protein kinase pim-3 (Homo sapiens)"
uom = "%"
observed = 5.79

[[record]]
smiles_repr = "COc1cccc(-n2ncc3c(N/N=C/c4ccc(S(C)(=O)=O)cc4)ncnc32)c1"
target_or_system = "Serine/threonine-protein kinase pim-3 (Homo sapiens)"
uom = "%"
observed = 2.23

[[record]]
smiles_repr = "COC(=O)Nc1nc2cc(Oc3ccc(NC(=O)Nc4cccc(Br)c4)cc3)ccc2[nH]1"
target_or_system = "Serine/threonine-protein kinase pim-3 (Homo sapiens)"
uom = "%"
observed = 0.5


###

Biological target: Glycogen synthase kinase-3 alpha (Homo sapiens) (UniProt P49840);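 also: values are mean inhibition of GSK3A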
Sequence (P49840 2-483 limits assumed): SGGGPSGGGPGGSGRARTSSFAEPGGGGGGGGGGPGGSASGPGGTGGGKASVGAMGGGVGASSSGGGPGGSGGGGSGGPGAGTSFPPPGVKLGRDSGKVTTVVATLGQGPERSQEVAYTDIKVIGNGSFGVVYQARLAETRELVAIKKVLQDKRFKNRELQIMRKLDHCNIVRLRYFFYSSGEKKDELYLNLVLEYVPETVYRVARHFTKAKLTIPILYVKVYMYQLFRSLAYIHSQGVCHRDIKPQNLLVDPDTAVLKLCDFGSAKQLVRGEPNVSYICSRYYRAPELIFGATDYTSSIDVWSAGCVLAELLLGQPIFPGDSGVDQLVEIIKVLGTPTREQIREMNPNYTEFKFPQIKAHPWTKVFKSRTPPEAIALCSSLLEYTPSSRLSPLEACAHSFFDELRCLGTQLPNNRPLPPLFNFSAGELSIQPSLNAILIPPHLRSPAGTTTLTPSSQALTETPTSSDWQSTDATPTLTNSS
Settings: at 0.1 µM
parameter_measured: inhibition (%)

[[record]]
smiles_repr = "C[C@@H](Oc1cc(-n2cnc3ccc(OCC4CCN(C)CC4)cc32)sc1C(N)=O)c1ccccc1C(F)(F)F"
observed = -0.56

[[record]]
smiles_repr = "CN(C)C(=O)O[C@@H]1CN[C@@H](C#Cc2cc3ncnc(Nc4ccc(OCc5cccc(F)c5)c(Cl)c4)c3s2)C1"
observed = 1.34

[[record]]
smiles_repr = "COc1cc2ncnc(Nc3ccc(C)c(O)c3)c2cc1OC"
observed = 4.81

[[record]]
smiles_repr = "CCn1c(-c2nonc2N)nc2ccc(F)cc21"
observed = 3.78

[[record]]
smiles_repr = "Cc1cc(-c2ccccn2)cc(C)c1/C=C/c1cncc(-c2nn[nH]n2)c1"
observed = 5.73


###

Biological target: CDK3/Cyclin E (Homo sapiens) (UniProt P24864+Q00526);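 also: reported percentages are mean inhibition values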
Sequence (P24864 whole entry, looked up): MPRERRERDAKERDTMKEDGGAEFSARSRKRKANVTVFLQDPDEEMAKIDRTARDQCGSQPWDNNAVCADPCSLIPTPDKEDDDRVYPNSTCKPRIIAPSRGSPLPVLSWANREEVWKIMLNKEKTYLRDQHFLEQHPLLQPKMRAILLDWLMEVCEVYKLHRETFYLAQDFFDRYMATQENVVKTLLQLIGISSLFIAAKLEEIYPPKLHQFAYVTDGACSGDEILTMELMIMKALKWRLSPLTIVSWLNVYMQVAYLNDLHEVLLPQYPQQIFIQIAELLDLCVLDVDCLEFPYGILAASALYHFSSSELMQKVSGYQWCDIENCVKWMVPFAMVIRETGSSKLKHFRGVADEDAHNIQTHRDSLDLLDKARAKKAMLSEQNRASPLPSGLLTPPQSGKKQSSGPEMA
Sequence (Q00526 whole entry, looked up): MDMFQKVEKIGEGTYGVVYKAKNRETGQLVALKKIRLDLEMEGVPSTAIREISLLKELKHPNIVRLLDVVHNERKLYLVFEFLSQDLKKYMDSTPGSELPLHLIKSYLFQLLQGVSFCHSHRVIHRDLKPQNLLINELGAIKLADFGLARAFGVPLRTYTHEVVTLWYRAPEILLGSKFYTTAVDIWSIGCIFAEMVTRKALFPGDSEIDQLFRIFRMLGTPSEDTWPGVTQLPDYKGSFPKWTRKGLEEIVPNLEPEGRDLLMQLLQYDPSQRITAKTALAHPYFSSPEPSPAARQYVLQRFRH
Conditions: at 0.1 µM
parameter_measured: inhibition (%)

[[record]]
smiles_repr = "CCn1c(-c2nonc2N)nc2ccc(F)cc21"
observed = 3.47

[[record]]
smiles_repr = "CS(=O)(=O)CCNCc1nc(-c2ccc3ncnc(Nc4ccc(OCc5cccc(C(F)(F)F)c5)cc4)c3c2)cs1"
observed = -1.59

[[record]]
smiles_repr = "NS(=O)(=O)c1ccc(N/N=C2\\C(=O)Nc3ccc(Cl)cc32)cc1"
observed = 40.8

[[record]]
smiles_repr = "CN(C)CCCn1c(-c2nonc2N)nc2cnccc21"
observed = 4.24

[[record]]
smiles_repr = "NS(=O)(=O)c1ccc(-c2cc3ccncc3cc2OCc2ccccc2)cc1"
observed = 4.12

[[record]]
smiles_repr = "C[C@@H](Oc1cc(-n2cnc3ccc(OC[C@@H](O)CO)cc32)sc1C(N)=O)c1ccccc1Cl"
observed = 1.36

[[record]]
smiles_repr = "CCn1c(-c2nonc2N)nc2c(C#CC(C)(C)O)nc(OCCNC)cc21"
observed = -3.05

[[record]]
smiles_repr = "FC(F)(F)c1ccc(-c2nn3ncccc3c2-c2ccnc(Nc3ccc4c(c3)OCCO4)n2)cc1"
observed = 7.17

[[record]]
smiles_repr = "Cc1ccc(NC(=O)CC2CC2)cc1-c1ccc(C(=O)NCC2CC2)cc1"
observed = 1.73

[[record]]
smiles_repr = "N#Cc1c(NC(=O)c2ccccc2F)sc2c1CCCC2"
observed = -1.77

[[record]]
smiles_repr = "COc1ccc2ncnc(Nc3ccc(OCc4ccccc4)cc3)c2c1"
observed = 1.69


###

Listed below: inhibition values for each entry.
Biological target: Sphingosine kinase 2 (Homo sapiens);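 also: values reported as mean percent inhibition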
Conditions: at 0.1 µM
parameter_measured: inhibition

[[record]]
smiles_repr = "CCn1c(-c2nonc2N)nc2ccc(F)cc21"
observed = "3.46%"

[[record]]
smiles_repr = "[O-][S+]1CCN(Cc2ccc(-c3ccc4ncnc(Nc5ccc(OCc6ccccc6)c(Cl)c5)c4c3)o2)CC1"
observed = "0.01%"

[[record]]
smiles_repr = "N#Cc1cccc(Nc2nccc(-c3cnn4ncccc34)n2)c1"
observed = "0%"

[[record]]
smiles_repr = "C[C@@H](Oc1cc(-n2cnc3ccc(OC[C@@H](O)CO)cc32)sc1C(N)=O)c1ccccc1Cl"
observed = "0%"

[[record]]
smiles_repr = "CN(C)C(=O)O[C@H]1CN[C@H](C#Cc2cc3ncnc(Nc4ccc(OCc5cccc(F)c5)c(Cl)c4)c3s2)C1"
observed = "-0.26%"

[[record]]
smiles_repr = "Nc1ccc(C#Cc2cncnc2Nc2ccc(OCc3cccc(F)c3)c(Cl)c2)cc1"
observed = "-3.76%"

[[record]]
smiles_repr = "CCOc1nccc2c1nc(-c1nonc1N)n2CC"
observed = "-0.3%"

[[record]]
smiles_repr = "COc1cc(Nc2nccc(-c3cnn4ncccc34)n2)cc(OC)c1"
observed = "0%"

[[record]]
smiles_repr = "COc1cc2ncnc(Nc3ccc4c(cnn4Cc4ccccc4)c3)c2cc1OC"
observed = "0.07%"

[[record]]
smiles_repr = "CS(=O)(=O)Nc1cccc(-c2ccc3c(NC(=O)C4CC4)n[nH]c3c2)c1"
observed = "1%"

[[record]]
smiles_repr = "NS(=O)(=O)c1cccc(Nc2cc(-c3ccc(F)cc3)n[nH]2)c1"
observed = "0.87%"

[[record]]
smiles_repr = "ON=C1CCc2cc(-c3nc(C4CCNCC4)[nH]c3-c3ccncc3)ccc21"
observed = "0.13%"

[[record]]
smiles_repr = "Cc1ccc2c(c1)/C(=N/Nc1ccc(S(N)(=O)=O)cc1)C(=O)N2"
observed = "0.19%"

[[record]]
smiles_repr = "COc1ccc2ncnc(Nc3ccc(OCc4ccccc4)cc3)c2c1"
observed = "0.06%"

[[record]]
smiles_repr = "Cc1cc(-c2ccccn2)cc(C)c1/C=C/c1cncc(-c2nn[nH]n2)c1"
observed = "0%"

[[record]]
smiles_repr = "Cc1ccc2c(-c3ccnc(Nc4ccc5c(c4)OCCO5)n3)c(-c3ccc(C(F)(F)F)cc3)nn2n1"
observed = "-0.54%"

[[record]]
smiles_repr = "CN(c1ccc(NC(=O)Nc2ccc(OC(F)(F)F)cc2)cc1)c1ccnc(Nc2cccc(S(N)(=O)=O)c2)n1"
observed = "-0.4%"

[[record]]
smiles_repr = "CN1CCN(C(=O)c2ccc(NC(=O)Nc3ccc(N(C)c4ccnc(Nc5ccc(CS(C)(=O)=O)cc5)n4)cc3)cc2)CC1"
observed = "0%"

[[record]]
smiles_repr = "NS(=O)(=O)c1cccc(-c2cc3ccncc3cc2OCc2ccccc2)c1"
observed = "-1.2%"

[[record]]
smiles_repr = "c1ccc(Cc2nc3ccc(Nc4ncnc5ccccc45)cc3[nH]2)cc1"
observed = "0.11%"

